These data points were gathered from paper PMC11231114.

- Test system: human hepatocytes
- protocol summary: Metabolite profiling in cryopreserved hepatocytes (in vitro MetID)
- Assay type: in vitro ADME
- measurement parameters: 60 min, 1 µM SYN2, 37 °C
I'd appreciate it if you could supply Relative abundance of metabolites calculated as % of parent (SYN2), Human values for the items below.

Asked: Relative abundance of metabolites calculated as % of parent (SYN2), Human of "CNc1ccc2cc3ccc(N(C)C)cc3[n+](CCF)c2c1" on human hepatocytes?
Given back: 19 % of parent

Asked: Checklist item: Relative abundance of metabolites calculated as % of parent (SYN2), Human tested on human hepatocytes, entry CN(C)c1ccc2cc3ccc(N(C)C)cc3[n+](CCF)c2c1 [SYN2] , value?
Given back: 100 % of parent

Asked: Give Relative abundance of metabolites calculated as % of parent (SYN2), Human (human hepatocytes) of the following molecule: "CN(C)c1ccc2cc3ccc(N(C)C)cc3nc2c1"
Given back: 1 % of parent

Asked: Form field: Relative abundance of metabolites calculated as % of parent (SYN2), Human recorded for "CNc1ccc2cc3ccc(N)cc3[n+](CCF)c2c1" with human hepatocytes (enter value)
Given back: 3 % of parent
